# credit: PubChem BioAssay (NCI)

Test system: SF-295 CNS
Assay: NCI tumour cell line growth inhibition, 48 h
observed.property: TGI (µM)
Answers are plain numbers, in µM.

molecule: CCN(CC)C1Oc2cc3c(cc2C(c2cc(OC)c(OC)c(OC)c2)C1C)OCO3 (stereo not given)
TGI / µM: 10
--
molecule: COc1c(Sc2ccccc2)cc(Sc2ccccc2)c2cccnc12
TGI / µM: 78.6
--
molecule: N=c1ccc2nc3c(cc(N)c4ccccc43)oc-2c1
TGI / µM: 0.599
--
molecule: COc1ccc(NC(=O)n2nc(/C=C\c3ccc(O)c(OC)c3)cc2/C=C\c2ccc(O)c(OC)c2)cc1
TGI / µM: 53.2

Next:
// query # query: TGI of entry Clc1nc2c(C#Cc3ccccc3)ncnc2n1C1CCCCO1 (stereo not given)
// result 54.4

----------
System: OVCAR-3 ovarian
Assay: NCI tumour cell line growth inhibition, 48 h
Exercise: state measured TGI for each of the compounds provided.

As a guide, the following entries are already answered.
compound: CC[C@]1(O)C[C@@H]2CN(CCc3c([nH]c4ccccc34)[C@@](C(=O)OC)(c3cc4c(cc3OC)N(C)[C@H]3[C@@](O)(C(N)=O)[C@H](O)[C@]5(CC)[C@@H]6C[C@@H]6CN6CC[C@]43[C@@H]65)C2)C1
target.or.test.system: OVCAR-3 ovarian
recorded.measurement: 0.0818 µM

compound: N#C/C(C(=O)Nc1ccccc1)=C(/N)N1CCCCC1
target.or.test.system: OVCAR-3 ovarian
recorded.measurement: > 100 µM

compound: COc1cc2ncnc3c2cc1OCCCCCN(C)Cc1ccc(Br)cc1N3
target.or.test.system: OVCAR-3 ovarian
recorded.measurement: > 100 µM

compound: Cn1cc(C2=C(c3cn(C)c4cc(N)ccc34)C(=O)NC2=O)c2ccccc21
target.or.test.system: OVCAR-3 ovarian
recorded.measurement: > 12.2 µM

compound: COC(=O)C(CC(=O)c1c[nH]c2ccccc12)c1c[nH]c2ccccc12 (centres undefined)
target.or.test.system: OVCAR-3 ovarian
recorded.measurement: > 10 µM

compound: CCCCCCCCCCCCCCCCCCNC(=O)OCC(CNS(=O)(=O)CCC[n+]1cccc2ccccc21)COC (centres undefined)
target.or.test.system: OVCAR-3 ovarian
recorded.measurement: 48.5 µM

compound: Cc1ccc(/C=N\NC(=O)c2ccncc2)s1
target.or.test.system: OVCAR-3 ovarian
recorded.measurement: > 100 µM

compound: COc1ccc(N2C(=O)C3c4[nH]c5ccccc5c4C4CCCCCCC4C3C2=O)cc1 (centres undefined)
target.or.test.system: OVCAR-3 ovarian
recorded.measurement: 16.8 µM

Next:
// query # query: TGI of entry CCOC(=O)C1=C(Nc2ccc(Cl)c(Cl)c2)OC/C1=N\NC(=O)Cc1ccccc1
// result > 100 µM

----------
Exercise: state measured TGI for each of the compounds provided.
Tested on: RXF 393 renal
Experiment: NCI tumour cell line growth inhibition, 48 h

entry.smiles: O=c1nc2ccc3sc4ccccc4c(=O)c3n2c(=O)[nH]1
TGI: > 100 µM
//
entry.smiles: CCN(CCCl)c1cccc(NC(=O)c2ccc(C(=O)Nc3cccc(CN(C)C)c3)cc2)c1
TGI: 0.0298 µM
//
entry.smiles: COc1cc2oc(-c3ccc4c(c3)OCO4)c(OC)c(=O)c2c(O)c1OC
TGI: > 50 µM
//
entry.smiles: COC(=O)c1ccc2c(c1)C(=O)c1c-2n(CCCN)c(=O)c2cc(OC)c(OC)cc12
TGI: > 52 µM
//
entry.smiles: CCCCCCCCCCCCCC(=O)NCC(OCC)OCC
TGI: > 100 µM
//
entry.smiles: COC(=O)[C@](C)(Cc1ccccc1)NC(=O)[C@@H](C)N1[C@@H](c2ccccc2)COC1(C)C
TGI: > 100 µM
//
entry.smiles: Cc1nc2cccc(F)c2c(=O)n1-c1nnc(C(F)(F)F)s1
TGI: > 10 µM

// query # query: TGI of entry COc1cc2c(cc1OC)C(=O)/C(=C/c1ccc(O)cc1)CC2
// result > 10 µM
